system: SARS-CoV-2 Omicron BA.2 variant; test: microbe, parasite or virus in culture; type: cell-based; conditions: Severe acute respiratory syndrome coronavirus 2; Calu-3; Omicron BA.2; […]; read-out: Antiviral efficacy EC50 (95% CI)
pEC50: −log10 of the molar value.
Recorded measurements of pEC50, one per entry
measurement-label: pEC50

{"compound": "NC(N)=Nc1ccc(C(=O)OCCN2CCN(C(=O)N[C@@H](Cc3ccccc3)C(=O)N[C@H](/C=C/S(=O)(=O)c3ccccc3)CCc3ccccc3)CC2)cc1", "measurement-label": "pEC50", "assay-result": 7.19}
{"compound": "CCOC(=O)C1OC1C(=O)NC(CC(C)C)C(=O)NCCC(C)C (stereo not drawn) [E64d]", "measurement-label": "pEC50", "assay-result": 6.62}
{"compound": "CN1CCN(C(=O)N[C@@H](Cc2ccccc2)C(=O)N[C@H](/C=C/S(=O)(=O)c2ccccc2)CCc2ccccc2)CC1", "measurement-label": "pEC50", "assay-result": 7.85}
